Target: N-arachidonyl glycine receptor (Homo sapiens)
Assay: Agonist activity at human GPR18 expressed in CHO cells assessed as induction of beta-arrestin recruitment by beta-galactosidase enzyme fragment complementation method relative to delta9-THC
Assay type: cell-based
Design: concentration or dose not given beside the values
Threshold 7%: Activity strictly smaller gives t, otherwise f.

compound | qualitative.label
COc1ccc(/C=C2\N=C3SCCCN3C2=O)c(OC)c1 | t
O=C1N=C2SCCCN2/C1=C\C=C\c1ccccc1 | f
O=C1/C(=C/c2cccc(OCc3ccccc3Cl)c2)N=C2SCCCCN12 | t
CCOC(=O)C1CN2C(=O)C(c3ccccc3)(c3ccccc3)N=C2S1 (stereo unspecified) | f
O=C1N2CCSC2=NC1(c1ccccc1)c1ccccc1 | f

====

Molecular target: G-protein coupled receptor 55 (Homo sapiens)
Sequence (Q9Y2T6 whole entry, the tested form may be a part): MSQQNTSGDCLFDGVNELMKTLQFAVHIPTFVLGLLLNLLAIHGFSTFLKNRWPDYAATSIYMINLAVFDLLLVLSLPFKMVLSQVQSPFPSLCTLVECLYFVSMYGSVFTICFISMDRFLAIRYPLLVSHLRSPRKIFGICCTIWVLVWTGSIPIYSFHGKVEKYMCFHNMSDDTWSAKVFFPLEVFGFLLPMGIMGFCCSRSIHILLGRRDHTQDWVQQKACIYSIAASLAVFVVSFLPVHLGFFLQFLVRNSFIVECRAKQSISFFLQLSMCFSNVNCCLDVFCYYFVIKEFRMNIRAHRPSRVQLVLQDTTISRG
Assay: Antagonist activity against human GPR55 expressed in CHO cells assessed as reduction in LPI-induced beta-arrestin recruitment by beta-galactosidase enzyme fragment complementation method
pIC50: −log10 of the molar value.

molecule | pIC50
O=C1/C(=C/c2ccc([N+](=O)[O-])cc2)N=C2SCCCN12 | < 5.00
C/C(=C1/N=C2SCCCCN2C1=O)c1ccccc1 | < 5.00
O=C1N=C2SCCN2C1(c1ccccc1)c1ccccc1 | < 5.00
CCCCC/C=C\C/C=C\C/C=C\C/C=C\CCCC(=O)NCC(=O)O [ARACHIDONOYL GLYCINE] | < 5.00
O=C1/C(=C/c2cccc(Oc3ccccc3)c2)N=C2SCCCN12 | < 5.00
CCOC(=O)COc1cccc(/C=C2\N=C3SCCCCN3C2=O)c1 | < 5.00
O=C1/C(=C/c2cccc(OCc3ccc(Cl)cc3)c2)N=C2SCCCN12 | < 5.00
O=C1N2CCSC2=NC1(c1ccccc1)c1ccccc1 | < 5.00
O=C1/C(=C/c2cccc(OCc3ccccc3Cl)c2)N=C2SCCCCN12 | ≤ 5.00
O=C1/C(=C/c2cccc(Cl)c2Cl)N=C2SCCCN12 | 5.16
O=C1/C(=C/c2cccc(Cl)c2)N=C2SCCCN12 | ≤ 5.00

====

Target: Cannabinoid receptor 2 (Homo sapiens, UniProt P34972)
Sequence (P34972 whole entry): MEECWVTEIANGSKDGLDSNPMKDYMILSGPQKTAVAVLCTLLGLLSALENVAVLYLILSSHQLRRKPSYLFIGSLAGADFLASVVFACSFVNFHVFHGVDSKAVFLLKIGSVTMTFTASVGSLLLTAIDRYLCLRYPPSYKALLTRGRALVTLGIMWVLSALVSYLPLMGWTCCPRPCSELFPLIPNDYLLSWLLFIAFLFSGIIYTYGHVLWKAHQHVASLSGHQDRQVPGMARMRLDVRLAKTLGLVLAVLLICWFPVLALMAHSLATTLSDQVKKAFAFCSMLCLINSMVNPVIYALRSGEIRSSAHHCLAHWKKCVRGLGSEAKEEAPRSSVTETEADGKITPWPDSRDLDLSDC
Test: Agonist activity at human recombinant CB2 receptor expressed in CHO-K1 cell membranes assessed effect on forskolin-induced cAMP accumulation at 10 uM
Type: functional, cell-based
Activity calls are given as the source filed them. The rule behind the calls is not given here.
Classes used: Y = active, N = inactive

compound | qualitative.label
O=C1/C(=C/c2cccc(OCc3ccc(F)cc3)c2)N=C2SCCCCN12 | N
O=C1/C(=C/c2cccc(OCc3ccc(Cl)cc3Cl)c2)N=C2SCCCCN12 | N
Cc1c(C(=O)NN2CCOCC2)nn(-c2ccc(Cl)cc2Cl)c1-c1ccc(I)cc1 | N
O=C1/C(=C/c2cccc(OCc3ccccc3)c2)N=C2SCCCCN12 | N
O=C1/C(=C/c2cccc(OCc3ccc(Cl)cc3Cl)c2)N=C2SCCCN12 | N
O=C1/C(=C/c2cccc(OCc3ccccc3Cl)c2)N=C2SCCCCN12 | N
CCCCCCC(C)(C)c1ccc([C@@H]2C[C@H](O)CC[C@H]2CCCO)c(O)c1 [CP-55940] | Y
O=C1/C(=C/c2cccc(OCc3ccccc3)c2)N=C2SCCCN12 | N

====

Molecular target: N-arachidonyl glycine receptor (Homo sapiens) (UniProt Q14330)
Sequence (whole entry): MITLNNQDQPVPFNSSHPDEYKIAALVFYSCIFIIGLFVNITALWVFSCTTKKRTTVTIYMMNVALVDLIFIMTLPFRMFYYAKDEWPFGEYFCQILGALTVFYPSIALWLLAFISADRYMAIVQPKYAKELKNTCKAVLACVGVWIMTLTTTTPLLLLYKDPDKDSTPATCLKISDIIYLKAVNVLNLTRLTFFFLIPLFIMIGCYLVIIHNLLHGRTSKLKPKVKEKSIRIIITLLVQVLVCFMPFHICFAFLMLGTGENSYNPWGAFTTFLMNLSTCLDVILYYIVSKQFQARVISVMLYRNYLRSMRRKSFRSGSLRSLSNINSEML
Assay: Antagonist activity against human GPR18 expressed in CHO cells assessed as reduction in delta9-THC-induced beta-arrestin recruitment at 10 uM by beta-galactosidase enzyme fragment complementation method
Type: cell-based
Threshold check on inhibition: at or above 10% gives yes (1), strictly below gives no (0).

smiles.notation | qualitative.label
O=C1N=C2SCCN2C1(c1ccccc1)c1ccccc1 | no (0)
O=C1/C(=C/c2cccc(Cl)c2)N=C2SCCCN12 | yes (1)
O=C1/C(=C/c2ccc(Br)cc2)N=C2SCCCN12 | yes (1)
O=C1N2CCCCSC2=NC1(c1ccccc1)c1ccccc1 | no (0)
O=C1/C(=C/c2ccc(Cl)cc2)N=C2SCCCN12 | yes (1)
